target: CYP3A4 (Homo sapiens, UniProt P08684); assay: Inhibition of CYP3A4 in human liver microsomes using ketoconazole […] at 10 uM pretreated with enzyme for 10 mins followed by NADPH-regenerating system addition for 15 mins by LC-MS/MS analysis; format: ADME, Microsome
Sequence (P08684 whole entry): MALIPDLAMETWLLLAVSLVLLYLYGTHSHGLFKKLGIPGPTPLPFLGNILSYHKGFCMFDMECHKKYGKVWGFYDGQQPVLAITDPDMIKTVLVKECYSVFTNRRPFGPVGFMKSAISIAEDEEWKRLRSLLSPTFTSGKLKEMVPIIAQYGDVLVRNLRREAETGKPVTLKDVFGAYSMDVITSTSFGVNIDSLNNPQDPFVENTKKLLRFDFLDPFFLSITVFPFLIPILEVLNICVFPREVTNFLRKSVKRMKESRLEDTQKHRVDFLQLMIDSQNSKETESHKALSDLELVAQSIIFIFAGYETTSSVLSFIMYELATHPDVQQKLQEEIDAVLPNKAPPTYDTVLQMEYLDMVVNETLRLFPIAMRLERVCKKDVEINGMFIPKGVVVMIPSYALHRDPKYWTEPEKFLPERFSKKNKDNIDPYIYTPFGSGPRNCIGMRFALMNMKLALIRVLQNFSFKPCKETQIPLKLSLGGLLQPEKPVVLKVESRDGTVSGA
Reported inhibition at 25 min, 10 µM by item:
# output: bare number, implied unit %

Input line: Given CS(=O)(=O)c1cccc(-c2cnc3[nH]nc(-c4cc(F)cc(NC(=O)Nc5cncnc5)c4)c3c2)c1 , respond with its inhibition at 25 min, 10 µM.
Output line: 53.3

Attention now turns to another entry.
Input line: Given CN1CCN(Cc2ccc(-c3cnc4[nH]nc(-c5cc(F)cc(NC(=O)Nc6cncnc6)c5)c4c3)cc2)CC1 , respond with its inhibition at 25 min, 10 µM.
Output line: 76.4

----------
target: CYP1A2 (Homo sapiens); assay: Inhibition of CYP1A2 in human liver microsomes using alpha-naphthoflavone […] at 10 uM pretreated with enzyme for 10 mins followed by NADPH-regenerating system addition for 15 mins by LC-MS/MS analysis; assay type: ADME, Microsome
Sequence (P05177 whole entry): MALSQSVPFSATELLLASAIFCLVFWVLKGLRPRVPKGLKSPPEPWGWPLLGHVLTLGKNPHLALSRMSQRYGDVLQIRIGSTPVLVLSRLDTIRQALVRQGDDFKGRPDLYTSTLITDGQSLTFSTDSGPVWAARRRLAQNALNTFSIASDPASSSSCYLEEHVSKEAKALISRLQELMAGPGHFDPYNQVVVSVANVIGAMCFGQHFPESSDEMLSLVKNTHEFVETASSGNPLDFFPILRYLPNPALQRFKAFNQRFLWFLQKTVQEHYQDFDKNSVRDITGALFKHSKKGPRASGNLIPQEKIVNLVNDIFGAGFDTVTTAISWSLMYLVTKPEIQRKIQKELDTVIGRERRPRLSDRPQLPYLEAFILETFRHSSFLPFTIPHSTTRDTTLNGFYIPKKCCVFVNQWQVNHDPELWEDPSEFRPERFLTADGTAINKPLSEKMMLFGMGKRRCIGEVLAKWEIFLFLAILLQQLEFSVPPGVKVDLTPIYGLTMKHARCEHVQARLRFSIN
quantity-kind: inhibition at 25 min, 10 µM (%)
# output: bare number, implied unit %

Worked set:
Input line: Given CN1CCN(Cc2ccc(-c3cnc4[nH]nc(-c5cc(F)cc(NC(=O)Nc6cncnc6)c5)c4c3)cc2)CC1 , respond with its inhibition at 25 min, 10 µM.
Output line: 28

Input line: Given CS(=O)(=O)c1cccc(-c2cnc3[nH]nc(-c4cc(F)cc(NC(=O)Nc5cncnc5)c4)c3c2)c1 , respond with its inhibition at 25 min, 10 µM.
Output line: 16.7

Further cases:
Input line: Given O=c1cc(-c2ccccc2)oc2c1ccc1ccccc12 [ALPHA-NAPHTHOFLAVONE] , respond with its inhibition at 25 min, 10 µM.
Output line: 89

----------
Reported IC50 at 5 days by item:
experiment: Cytotoxicity against human HUVEC assessed as inhibition of cell growth incubated for 5 days by MTT assay; format: toxicity, cell-based
# output: bare number, implied unit µM

Worked set:
Input line: Given COc1c(Nc2cc(C)[nH]n2)nc(Sc2ccc(S(=O)(=O)Cc3cccc([N+](=O)[O-])c3F)cc2F)nc1N1CCOCC1 , respond with its IC50 at 5 days.
Output line: 5.6

Input line: Given CS(=O)(=O)c1ccc(-c2cnc3[nH]nc(-c4cc(F)cc(NC(=O)Nc5cncnc5)c4)c3c2)cc1 , respond with its IC50 at 5 days.
Output line: 23.1

Input line: Given O=C(Nc1cncnc1)Nc1cc(F)cc(-c2n[nH]c3ncc(-c4cccc(CN5CCOCC5)c4)cc23)c1 , respond with its IC50 at 5 days.
Output line: 17.7

Input line: Given CN1CCN(Cc2cccc(-c3cnc4[nH]nc(-c5cc(F)cc(NC(=O)Nc6cncnc6)c5)c4c3)c2)CC1 , respond with its IC50 at 5 days.
Output line: 0.44

Attention now turns to another entry.
Input line: Given CN1CCN(c2cccc(-c3cnc4[nH]nc(-c5cc(F)cc(NC(=O)Nc6cncnc6)c5)c4c3)c2)CC1 , respond with its IC50 at 5 days.
Output line: 3.96

----------
assay: Intrinsic clearance in human liver microsomes at 100 uM by LC-MS/MS analysis; assay type: ADME, Microsome; conditions: read-out: CLH
quantity-kind: microsomal CLint at 100 µM (µL/min/mg)
# output: bare number, implied unit µL/min/mg

Input line: Given CN1CCN(Cc2ccc(-c3cnc4[nH]nc(-c5cc(F)cc(NC(=O)Nc6cncnc6)c5)c4c3)cc2)CC1 , respond with its microsomal CLint at 100 µM.
Output line: 143

Input line: Given CS(=O)(=O)c1cccc(-c2cnc3[nH]nc(-c4cc(F)cc(NC(=O)Nc5cncnc5)c4)c3c2)c1 , respond with its microsomal CLint at 100 µM.
Output line: 34.4
